src = ChEMBL document CHEMBL2440045

Kindly supply the reported pIC50 values for the records listed here.
# Test system: MCF7
# Test method notes: Antiproliferative activity against human MCF7 cells assessed as cell viability after 72 hrs by MTT assay
# Format: functional, cell-based
# Recorded conditions: MCF7, 72 h
Expect pIC50 as a plain number equal to -log10 of the molar concentration.

Challenge: Identify measured pIC50 associated with Brc1ccc(NC2=NCc3c([nH]c4ccccc34)S2)cc1
Response given: 4.53

Challenge: Identify measured pIC50 associated with c1ccc2c3c([nH]c2c1)SC(N1CCCCC1)=NC3
Response given: 4.43

Challenge: Identify measured pIC50 associated with CSC1=NCc2c([nH]c3ccccc23)S1 [CYCLOBRASSININ]
Response given: 4.14

Challenge: Identify measured pIC50 associated with CO[C@@H]1N(C(=O)OC(C)(C)C)c2ccccc2[C@@]12CN=C(N1CCCCC1)S2 (racemic)
Response given: 4.19

Challenge: Identify measured pIC50 associated with CO[C@H]1N(C(=O)OC(C)(C)C)c2ccccc2[C@@]12CN=C(N1CCOCC1)S2 (racemic)
Response given: 4.15

Challenge: Identify measured pIC50 associated with Cc1ccc(NC2=NCc3c([nH]c4ccccc34)S2)cc1
Response given: 4.49

Challenge: Identify measured pIC50 associated with CC(C)(C)OC(=O)N1c2ccccc2[C@@]2(CN=C(Nc3ccccc3)S2)[C@H]1O (racemic)
Response given: 4.56

Challenge: Identify measured pIC50 associated with CO[C@@H]1N(C(=O)OC(C)(C)C)c2ccccc2[C@@]12CN=C(Nc1ccc(C(F)(F)F)cc1)S2 (racemic)
Response given: 4.95

Challenge: Identify measured pIC50 associated with CO[C@H]1N(C(=O)OC(C)(C)C)c2ccccc2[C@@]12CN=C(Nc1ccc([N+](=O)[O-])cc1)S2 (racemic)
Response given: 4.48

Challenge: Identify measured pIC50 associated with CO[C@@H]1N(C(=O)OC(C)(C)C)c2ccccc2[C@@]12CN=C(Nc1cc(C(F)(F)F)cc(C(F)(F)F)c1)S2 (racemic)
Response given: 4.68

Challenge: Identify measured pIC50 associated with COc1ccc(NC2=NC[C@]3(S2)c2ccccc2N(C(=O)OC(C)(C)C)[C@@H]3OC)cc1 (racemic)
Response given: 4.51

Challenge: Identify measured pIC50 associated with CC(C)(C)OC(=O)n1cc(CNC(=S)Nc2ccc(Cl)cc2)c2ccccc21
Response given: 5.07

Challenge: Identify measured pIC50 associated with Fc1ccc(NC2=NCc3c([nH]c4ccccc34)S2)cc1
Response given: 4.47

Challenge: Identify measured pIC50 associated with CO[C@@H]1N(C(=O)OC(C)(C)C)c2ccccc2[C@@]12CN=C(Nc1ccccc1)S2 (racemic)
Response given: 4.49

Challenge: Identify measured pIC50 associated with c1ccc(NC2=NCc3c([nH]c4ccccc34)S2)cc1
Response given: 4.50

Challenge: Identify measured pIC50 associated with CC(C)(C)OC(=O)n1cc(CNC(=S)Nc2ccccc2)c2ccccc21
Response given: 6.14

Challenge: Identify measured pIC50 associated with CO[C@H]1N(C(=O)OC(C)(C)C)c2ccccc2[C@@]12CN=C(Nc1ccc(F)cc1)S2 (racemic)
Response given: 4.52

----------
# System: MCF7
# Test method notes: Antiproliferative activity against human MCF7 cells assessed as cell viability after 72 hrs by MTT assay
# Type: functional, cell-based
# Recorded conditions: MCF7, 72 h
Kindly supply the reported IC50 values for the records listed here.
Please respond with the number in µM and leave the unit unwritten.

Challenge: Identify measured IC50 associated with CC(C)(C)OC(=O)n1cc(CNC(=S)Nc2ccc(F)cc2)c2ccccc21
Response given: 27.6

Challenge: Identify measured IC50 associated with CSC(=S)NCc1cn(C(=O)OC(C)(C)C)c2ccccc12
Response given: 23

Challenge: Identify measured IC50 associated with COc1ccc(NC(=S)NCc2cn(C(=O)OC(C)(C)C)c3ccccc23)cc1
Response given: 92

----------
Kindly supply the reported Ratio IC50 values for the records listed here.
# Tested on: CCRF-CEM
# Test method notes: Selectivity index, ratio of IC50 for HUVEC to IC50 for human CCRF-CEM cells

Challenge: Identify measured Ratio IC50 associated with Cc1ccc(NC2=NCc3c([nH]c4ccccc34)S2)cc1
Response given: >20

Challenge: Identify measured Ratio IC50 associated with COc1ccc(NC2=NCc3c([nH]c4ccccc34)S2)cc1
Response given: >5.1

Challenge: Identify measured Ratio IC50 associated with c1ccc(NC2=NCc3c([nH]c4ccccc34)S2)cc1
Response given: >11

Challenge: Identify measured Ratio IC50 associated with Brc1ccc(NC2=NCc3c([nH]c4ccccc34)S2)cc1
Response given: >6.5
